# credit: the DeepSol protein solubility set

- ASSAY_PROCEDURE: soluble on expression in E. coli; label from the status in PepcDB or PDB records

RESIDUE_CODES: MNSKCHCVILNDGNFIPVLGFGTALPLECPKSKAKELTKIAIDAGFHHFDSASVYNTEDHVGEAIRSKIADGTVRREDIFYTSKVWCTSLHPELVRASLERSLQKLQFDYVDLYLIHYPMALKPGEENFPVDEHGKLIFDRVDLCATWEAMEKCKDAGLTKSIGVSNFNYRQLEMILNKPGLKYKPVCNQVECHPYLNQMKLLDFCKSKDIVLVAYGVLGTQRDGGWVDQNSPVLLDEPVLGSMAKKYNRTPALIALRYQLQRGIVVLNTSLKEERIKENMQVFEFQLSSEDMKVLDGLNRNMRYIPAAIFKGHPNWPFLDEY
soluble on expression in E. coli: soluble
//
RESIDUE_CODES: MAHHHHHHMMSLAIEAVKDFLVKLQDDICEALEAEDGQATFMEDKWTREGGGGGRTRVMVNGAVIEKGGVNFSHVYGKGLPGSSTERHPDMTGCNFQAMGVSLVIHPKNPHVPTSHANVRLFVAEREGKEPVWWFGGGFDLTPYYAVEEDCRYFHQVAQDLCKPFGADVYTRFKVWCDEYFFIPYRNEARGIGGLFFDDLNEWPFEKCFEFVQAVGKGYIDAYIPIVNRRKNTPYTEQQVEFQEFRRGRYAEFNLVIDRGTKFGLQSGGRTESILISLPPRARWGYDWQPEPGTPEARLTEYFLMKRQWV
soluble on expression in E. coli: soluble

----------
- ASSAY_PROCEDURE: soluble on expression in E. coli; label from the status in PepcDB or PDB records
ASSAY_READOUT: soluble on expression in E. coli

Consider the worked cases shown below.
RESIDUE_CODES: HSIISETTNTNYRQEFVQLGTQMSGKLSFEEWKELYRRIVFWEIELEQADRQMGELLEMQKQEANRLFARFVTQNYREWIAKPDTRPTMSPDLFKQKVFPLLDNGEKVFFILIDNFRQDQWESVKSMLSEFYTFEEDMYLSILPTATQYARNAIFSGLMPLQIEKMFPDLWVDEESEEGKNLNEEPMIRTLIERYRKHYSFSYNKVYETKFGERLLGQIRSLSQNQLNVIVLNFVDMMSHARTDSKMIRELASNEAAYRSLTKSWFKHSTTYNLFRSIAEMGYKVVLTTDHGTIQVKNPVKVIGDRSTNTNLRYKIGKNLDYNPKEVFEIKDPASVGLPHNNLSDKFIFTKEDDFFAYPNNYNYYVQYYRNTFQHGGISLEEMLVPVITMQPK
soluble on expression in E. coli: soluble
--
RESIDUE_CODES: MPRTDLPFDELIIREYLLDNPDFFNRYPELLLAMRLPHLERGAISLVERRQELLRQRVNQLEEEITSLLTMAARNEKIFLFNTELSFKLLNCVNLESLKEVLADNLKAQFNFTHVRLISVLEADVEMKAIWAERLRKEYYFGRLTQQEAKRLFGSEVGSVALVKLADDIPVIFAVASHDATHFHPDMDNMLLEQIRRLLAHMLAKLAAALEHHHHHH
soluble on expression in E. coli: not soluble
--
RESIDUE_CODES: MGSDKIHHHHHHMLHIVNNLRDSFTPGTPHQAALAQIFPQDSEKQTMDKRDLSAIFRERLKLLLTRSDLNQSAFASAVGIDRSALSQLMSGASTRLPRAETLLNIAAEFKVSLDWLLGLSQDEGVTGEIRESLEIEEAPDGFDRTLLAKWFAEAAGTKIRYVPAGIPDLLRTRALVDYEANITNRSRLAQASETQYRIEYNRRPETDMEVCMPRHTLEIFARGLGVWDRFPEADRRQQLAHMATLLDDLYPTFRLFLYDGRMRYSIPLTIFGPYRAAIYVGDMYVVLNATQPVQALTQHFDNLIRAADVNPHEAAAFARNLAGMSFPSGSV
soluble on expression in E. coli: not soluble
--
RESIDUE_CODES: MGSDKIHHHHHHMQTFLKGKRVGYWLSEKKIKKLNFQAFAELCRKRGMEVVQLNLSRPIEEQGPLDVIIHKLTDVILEADQNDSQSLELVHRFQEYIDAHPETIVLDPLPAIRTLLDRSKSYELIRKIEAYMEDDRICSPPFMELTSLCGDDTMRLLEKNGLTFPFICKTRVAHGTNSHEMAIVFNQEGLNAIQPPCVVQNFINHNAVLYKVFVVGESYTVVQRPSLKNFSAGTSDRESIFFNSHNVSKPESSSVLTELDKIEGVFERPSDEVIRELSRALRQALGVSLFGIDIIINNQTGQHAVIDINAFPGYEGVSEFFTDLLNHIATVLQGQSTAMAATGDVAL
soluble on expression in E. coli: soluble
--
RESIDUE_CODES: MSLSYEYFPGFYDRLMDSELYDEWLEFSADFIGDAPKKVLDLACGTAEFALRLSFSGHQVTGVDLSKEMVAVAKEKVAAAEIDLPIIEQDMSKLALKQTFDVVTCFCDSLNYLETEQALEATIQAVSAHLEPNGLFLFDVHSVFKIEQGFKDYSYGDSDEEISTIWNSFPGEHPHSIEHELTFYILGEDDTYNRVDELHKERTYPIATYENLLKKFGFTKIDIYADFSHEKPNKTSERIFFAARKEGHHHHHH
soluble on expression in E. coli: soluble

Problem: soluble on expression in E. coli lookup needed for YESIDLKAVLFDMDGVLFDSMPNHAESWHKIMKRFGFGLSREEAYMHEGRTGASTINIVSRRERGHDATEEEIKAIYQAKTEEFNKCPKAERMPGALEVLTKIKSEGLTPMVVTGSGQTSLLDRLNHNFPGIFQANLMVTAFDVKYGKPNPEPYLMALKKGGFKPNEALVIENAPLGVQAGVAAGIFTIAVNTGPLHDNVLLNEGANLLFHSMPDFNKNWETLQSALKQ , thanks.
Result: not soluble

Problem: soluble on expression in E. coli lookup needed for MHESIQMIIDRIDHLVLTVSDISTTIRFYEEVLGFSAVTFKQNRKALIFGAQKINLHQQEMEFEPKASRPTPGSADLCFITSTPINDVVSEILQAGISIVEGPVERTGATGEIMSIYIRDPDGNLIEISQYVLEHHHHHH , thanks.
Result: not soluble

Problem: soluble on expression in E. coli lookup needed for MTTSTKLVELLYQLEAQLQKHELWQQTMPSPEALQSVEPFAIDTLDPHEWLQWIFIARMHALVESSQPLPRGFSIEPYFAEVWKQEPQYAELLNTIRTIDELCKLEHHHHHH , thanks.
Result: not soluble

Problem: soluble on expression in E. coli lookup needed for MTTTMSTLPVVLVDEILARVPITSLRSLRSTCKKWEASSKTNLVGGKATARKSSHVGFILIGDKICSMKLDLNGGDDFVDTSVNQVSAFDGFAISQLFHCDGLLFCISNNHYSNYTLMVCNMYLGETRLIQNRSLFESYQNFCSYAFGYDSSKNRNHKILRNNSVSGGYEIYSLKSDSWKDLNVDLEKSIHLWRLGSVSLKGNAYFRVIKVIEEGVWEYNLLCFDFTRESFGKLLSLPFESLGDEGEGIMVISCVRDDHLAVLYQRDTLGIWISTEIEPNKVSWREFLQVDLATLDGFPDVFIAGRFIVDEEKQVVVVFGQETELDLNHGNAFIFGRDGYFTSFTVGDAPPEDFTSYVPSLVSLQIDKTGKRKARDD , thanks.
Result: soluble

Problem: soluble on expression in E. coli lookup needed for MKVVAFNGSPRKEGNTASLIKHVLAELDKEGIETEIVQIGGKSVHGCTACSKCFENRDRRCVIDNDIVNECIEKMLEADGIILASPTYFADLTPELKALIDRAGFVAKANSEMFRYKVGAAVVAVRRAGSIHVFDSINHFFTISQMIIPGSSYWNMGIGRAEGDVEKDDEGIRTMQILGQNMAWLLKKLNELEHHHHHH , thanks.
Result: not soluble

Problem: soluble on expression in E. coli lookup needed for MHPSLRYIQGYPQNIVEQVSSLVDNGKLIPWFEKRYPDRHQIKSEKALYEYAIAIKNRYMKKASPISKVVYDKKIHAVNNALGLHSVISRNHGGKLKSKNEIRIANVFKDAPEALLRMLVVHELAHTREKNHDKAFYQLCCYMEPEYHQLELDARLFMIYLDLKANSNEEQLEHHHHHH , thanks.
Result: soluble

----------
- ASSAY_PROCEDURE: soluble on expression in E. coli; label from the status in PepcDB or PDB records
ASSAY_READOUT: soluble on expression in E. coli

Consider the worked cases shown below.
RESIDUE_CODES: MGHHHHHHSHMKPIATVGESYQYPPVNWAALLSPLMRLNFGEEIQQLCLEIMVTQAQSSQNAAALLGLWVTPPLIHSLSLNTKRYLLISAPLWIKHISDEQILGFVENLMVAVFKAASPLGSPELCPSALHGLSQAMKLPSPAHHLWSLLSEATGKIFDLLPNKIRRKDLELYISIAKCLLEMTDDDANRIAQVTKSNIEKAAFVKLYLVSQGRFPLVNLTDMLSVAVQHREKEVLAWMILHSLYQARIVSHANTGVLKRMEWLLELMGYMKCCLPVNILSQYGS
soluble on expression in E. coli: not soluble

RESIDUE_CODES: MGSDKIHHHHHHMLWSMTDGATPATPPTAAPEERFPHVNPLVYRFVVDVTFLPVLLTGMHIDVHGREHVPPPGTPLVVAANHQSALDPFLIARALPPGRYLQFMAKRELFVPVIGDIIRAGGSFPVDRESNDVGAIRTSLRILKAGGTVGIFPQGTRGGQELHGGAALIAARGRAPILPAGISHDGKRWVVRFGEPLPARGGIKANTEELGRRLQVLAQPVGRHL
soluble on expression in E. coli: not soluble

RESIDUE_CODES: MVSDEDELNLLVIVVDANPIWWGKQALKESQFTLSKCIDAVMVLGNSHLFMNRSNKLAVIASHIQESRFLYPGKNGRLGDFFGDPGNPPEFNPSGSKDGKYELLTSANEVIVEEIKDLMTKSDIKGQHTETLLAGSLAKALCYIHRMNKEVKDNQEMKSRILVIKAAEDSALQYMNFMNVIFAAQKQNILIDACVLDSDSGLLQQACDITGGLYLKVPQMPSLLQYLLWVFLPDQDQRSQLILPPPVHVDYRAACFCHRNLIEIGYVCSVCLSIFCNFSPICTTCETAFKISLPPVLKAKKKKLKVSA
soluble on expression in E. coli: not soluble

RESIDUE_CODES: GDSQDFSSSQSTSPVVHHRPIDQIALSTFEDTTPLKTDEVEQAWEHTQITYVDLRTGAHLGSGAERLARASLSLSKLYIADYVFDHGTQKEKEQAVEMIRKSDDDIADKLFDAYPNCIDSVAKKYQLEATQTYGRWG
soluble on expression in E. coli: not soluble

Problem: soluble on expression in E. coli lookup needed for MMIDDSKVSFVIPTINEEGTIGSVIDGIRSEFPNSEIIVVDTNSTDRTREIARSKGARVIEEPRRGYGRAYQTGIPAASGEIIVCMDGDGTYPTDVVKPLIELLIADRVDFISCDRITFRTSKNYTTLHYVGNMVLNLTIRILFKVRMVDSQSGMWVFRSEIYRKMKNLGNGMSFSQNIKIEAVRHGVFMEIPIRYGVRITKPKLKTWHDGFHNLFALFVKRVSELEHHHHHH , thanks.
Result: soluble

Problem: soluble on expression in E. coli lookup needed for MKNVGDLMQRLQKMMPAHITPAFKTGEELLAWQKEQGEIRAAALARENRAMKMQRTFNRSGIRPLHQNCSFDNYRVECDGQMNALSKARQYVDEFDGNIASFVFSGKPGTGKNHLAAAICNELLLRGKSVLIITVADIMSAMKDTFSNRETSEEQLLNDLSNVDLLVIDEIGVQTESRYEKVIINQIVDRRSSSKRPTGMLTNSNMEEMTKMLGERVMDRMRLGNSLWVNFTWDSYRSRVTGKEYLEHHHHHH , thanks.
Result: soluble
